Task for the reader: assign each of the following molecules its reported IC50.
target: butyrylcholinesterase from equine serum (eqBChE, E.C. 3.1.1.8) (Equus caballus, UniProt P81908); construct: butyrylcholinesterase from equine serum (eqBChE, E.C. 3.1.1.8); purchased Sigma Aldrich; host or cells: equine serum; assay: biochemical; conditions: eqBChE, Ellman assay, triplicate
Sequence (P81908 whole entry): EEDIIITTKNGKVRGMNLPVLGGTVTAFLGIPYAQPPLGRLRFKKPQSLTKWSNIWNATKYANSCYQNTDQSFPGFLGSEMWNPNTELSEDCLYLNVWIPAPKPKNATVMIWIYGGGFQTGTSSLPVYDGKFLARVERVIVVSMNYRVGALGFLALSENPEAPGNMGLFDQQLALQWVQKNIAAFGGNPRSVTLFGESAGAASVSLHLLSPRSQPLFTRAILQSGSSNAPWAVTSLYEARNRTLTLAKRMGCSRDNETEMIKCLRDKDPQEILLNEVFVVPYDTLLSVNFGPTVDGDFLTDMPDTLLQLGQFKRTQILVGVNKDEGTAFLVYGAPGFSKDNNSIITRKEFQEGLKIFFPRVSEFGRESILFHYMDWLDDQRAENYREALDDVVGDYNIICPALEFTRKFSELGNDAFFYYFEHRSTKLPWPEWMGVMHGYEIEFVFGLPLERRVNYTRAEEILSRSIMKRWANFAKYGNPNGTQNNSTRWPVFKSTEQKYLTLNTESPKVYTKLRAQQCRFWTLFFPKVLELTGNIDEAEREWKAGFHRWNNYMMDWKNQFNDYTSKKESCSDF
Write the answer as a number in µM, unit excluded.

Q: Returns the measured IC50 for the input molecule. Input: Cc1cccc(Cn2nnc3ccc4sc(C)cc4c32)c1
Ans: 70.3

Q: Need IC50, item Cc1cccc(Cn2n[n+](C)c3ccc4sc(C)cc4c32)c1
Ans: 9.7

Q: Given Cc1ccc(Cn2nnc3ccc4sc(C)cc4c32)cc1 , state its recorded IC50.
Ans: 57.6

Q: Form field: reported IC50 of Cc1cc2c(ccc3c2n(Cc2ccc(Cl)cc2)n[n+]3C)s1
Ans: 13.4

Q: Fill in: IC50 of COc1cccc(Cn2n[n+](C)c3ccc4sc(C)cc4c32)c1 is ___
Ans: 10.6

Entry source: paper PMC11591901
